- Experimental Details: NCI Yeast Anticancer Drug Screen. Data for the sgs1 mgt1 strain (AID 161);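 note: 0% = growth of cultures given vehicle only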
- Experimental Parameters: S. cerevisiae sgs1 mgt1 strain, at 50.0 µM, stronger effect = higher value
Compounds without any hit were thinned out: in the full panel of roughly 79,000, 15% have a hit.
Below: a set of entries, each annotated with reported growth inhibition.
Value Type: growth inhibition (%)

1. CCN(CC)CCSC(=O)C(O)(c1ccccc1)c1cccc(C)c1 (stereo unspecified) ... -2.2
2. COc1ccc(C(=O)C(C(=O)CCC(=O)Nc2ccc(Cl)c(Cl)c2)c2ccc(OC)cc2)cc1 (stereo unspecified) ... -11.3
3. COC(=O)C1CCCC(=O)C1C(=O)OC (stereo unspecified) ... -3.45
4. CSC1NN=C(CCC(=O)Nc2ccc(C)cc2)O1 (stereo unspecified) ... 13
5. NNC(N)=Nc1cccc2ccccc12 ... 0.35
6. NC(CSC(c1ccccc1)(c1ccccc1)c1ccccc1)C(=O)OC(c1ccccc1)c1ccccc1 (stereo unspecified) ... 29.6
